Provenance of the data: patent US10544103B2

molecular target: 5-HT2B receptor (Homo sapiens); construct: host or cells: CHO-K1; assay: 5-HT2B receptor binding, 3H-LSD ligand displacement assay; details: 0.01 uM compound
Sequence (P41595 whole entry): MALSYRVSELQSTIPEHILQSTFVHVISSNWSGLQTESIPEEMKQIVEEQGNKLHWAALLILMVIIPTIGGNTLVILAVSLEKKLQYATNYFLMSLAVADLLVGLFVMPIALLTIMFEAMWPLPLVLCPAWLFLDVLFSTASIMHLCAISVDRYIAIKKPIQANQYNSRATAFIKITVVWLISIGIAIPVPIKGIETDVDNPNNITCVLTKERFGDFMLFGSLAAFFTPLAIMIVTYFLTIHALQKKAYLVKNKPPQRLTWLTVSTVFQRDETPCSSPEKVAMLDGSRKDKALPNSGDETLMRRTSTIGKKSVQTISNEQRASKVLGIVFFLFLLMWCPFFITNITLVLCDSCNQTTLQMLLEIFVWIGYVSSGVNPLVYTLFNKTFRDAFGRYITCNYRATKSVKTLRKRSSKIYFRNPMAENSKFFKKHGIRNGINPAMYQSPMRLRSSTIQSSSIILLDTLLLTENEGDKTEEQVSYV
reportedProperty: inhibition at 0.01 µM (%)
Entry rule: numbers only, all in %.

For the compound CC1CN(C(=N)NCc2ccccc2)N=C1c1ccccc1O (stereo not drawn) , what inhibition at 0.01 µM is on record? 97

For the compound C[C@H]1CN(C(=N)N)N=C1c1cccc(Cl)c1O (single isomer, unassigned) , what inhibition at 0.01 µM is on record? 21

For the compound CC1CN(C(=N)N)N=C1c1cccc(Cl)c1O (stereo not drawn) , what inhibition at 0.01 µM is on record? 81

For the compound CC1CN(C(=N)N)N=C1c1cccc(F)c1O (stereo not drawn) , what inhibition at 0.01 µM is on record? 54

For the compound CC1CN(C(=N)NCc2ccc(Cl)cc2)N=C1c1ccccc1O (stereo not drawn) , what inhibition at 0.01 µM is on record? 67

For the compound CC1CN(C(=N)N)N=C1c1ccccc1O.Cl (stereo not drawn) , what inhibition at 0.01 µM is on record? 54

For the compound COc1ccc(CNC(=N)N2CC(C)C(c3ccccc3O)=N2)cc1Cl (stereo not drawn) , what inhibition at 0.01 µM is on record? 72

For the compound CC1CN(C(=N)Nc2ccc(F)cc2)N=C1c1ccccc1O (stereo not drawn) , what inhibition at 0.01 µM is on record? 91

For the compound COc1ccc(Cl)cc1C1=NN(C(=N)N)CC1C (stereo not drawn) , what inhibition at 0.01 µM is on record? 7

For the compound CCOC(=O)NC(=N)N1CC(C)C(c2cccc(Cl)c2O)=N1 (stereo not drawn) , what inhibition at 0.01 µM is on record? 50

For the compound COc1c(Cl)cccc1C1=NN(C(=N)Nc2ccc(F)cc2)CC1C (stereo not drawn) , what inhibition at 0.01 µM is on record? 83

For the compound COc1cc(CNC(=N)N2CC(C)C(c3ccccc3O)=N2)cc(OC)c1 (stereo not drawn) , what inhibition at 0.01 µM is on record? 36

For the compound COc1c(Cl)cccc1C1=NN(C(=N)Nc2ccccc2)CC1C (stereo not drawn) , what inhibition at 0.01 µM is on record? 92

For the compound CC1CN(C(=N)Nc2ccc(F)cc2)N=C1c1cccc(Cl)c1O (stereo not drawn) , what inhibition at 0.01 µM is on record? 99

For the compound CCCCNC(=N)N1CC(C)C(c2cccc(Cl)c2O)=N1 (stereo not drawn) , what inhibition at 0.01 µM is on record? 91

For the compound CC1CN(C(=N)NC2CC2)N=C1c1cccc(Cl)c1O (stereo not drawn) , what inhibition at 0.01 µM is on record? 84

For the compound CC1CN(C(=N)NCC(F)(F)C(F)(F)C(F)(F)F)N=C1c1cccc(Cl)c1O (stereo not drawn) , what inhibition at 0.01 µM is on record? 91

For the compound COc1ccc(CNC(=N)N2CC(C)C(c3ccccc3O)=N2)cc1OC (stereo not drawn) , what inhibition at 0.01 µM is on record? 28

For the compound CC1CN(C(=N)NCc2ccccc2)N=C1c1cccc(Cl)c1O (stereo not drawn) , what inhibition at 0.01 µM is on record? 97

For the compound COc1ccccc1C1=NN(C(=N)Nc2ccccc2)CC1C (stereo not drawn) , what inhibition at 0.01 µM is on record? 43

For the compound COc1ccccc1C1=NN(C(=N)Nc2ccc(C(F)(F)F)cc2)CC1C (stereo not drawn) , what inhibition at 0.01 µM is on record? 41

For the compound CCCCCCNC(=N)N1CC(C)C(c2cccc(Cl)c2O)=N1 (stereo not drawn) , what inhibition at 0.01 µM is on record? 96

For the compound COc1c(Cl)cccc1C1=NN(C(=N)NC2CC2)CC1C (stereo not drawn) , what inhibition at 0.01 µM is on record? 29

For the compound C[C@@H]1CN(C(=N)NCc2ccccc2)N=C1c1cccc(Cl)c1O (single isomer, unassigned) , what inhibition at 0.01 µM is on record? 101
